Would you mind telling me the reported remaining activity at 50 µM of each entry?
molecular target: Recombinant human glycogen synthase kinase 3β (Homo sapiens); construct: purchased Upstate 14-306; assay: GSK-3β inhibition (radiometric kinase assay, GS-2 peptide, 33P-ATP); type: biochemical; settings: 0.5 h; compound 50 μM; remaining GSK-3 activity
// return numeric value only (unit: %, not printed)

input: Consider the compound shown here: O=C(Cc1c[nH]c2ccccc12)Nc1nccs1 What is its recorded remaining activity at 50 µM?
output: 42.7

input: Next record, please: O=C(CCCc1c[nH]c2ccccc12)Nc1nccs1
output: 39

input: What do you get for O=C(Cc1c[nH]c2ccccc12)Nc1ncc(Cl)s1 ?
output: 14.6

input: Another: COc1ccc2[nH]c(C(=O)Nc3ncc([N+](=O)[O-])s3)cc2c1
output: 11

input: Now this one: O=C(Nc1ncc([N+](=O)[O-])s1)c1n[nH]c2ccccc12
output: 18.2

input: One more compound: O=C(CCc1c[nH]c2ccccc12)Nc1ncc([N+](=O)[O-])s1
output: 12.4

input: Query COc1ccc2[nH]cc(CC(=O)Nc3ncc([N+](=O)[O-])s3)c2c1 next
output: 32.2

input: Next compound up: O=C(Nc1ncc([N+](=O)[O-])s1)c1c[nH]c2ccccc12
output: 53.4

input: Item: O=C(CCCc1c[nH]c2ccccc12)Nc1ncc([N+](=O)[O-])s1
output: 18.9

input: Another compound to check: Cn1cc(CC(=O)Nc2ncc([N+](=O)[O-])s2)c2ccccc21
output: 9.27

input: What about Cc1[nH]c2ccccc2c1CC(=O)Nc1ncc([N+](=O)[O-])s1 ?
output: 2.61

input: Now this one: Cc1cnc(NC(=O)Cc2c[nH]c3ccccc23)s1
output: 37.1

input: // next record O=C(Cc1c[nH]c2ccccc12)Nc1ncc([N+](=O)[O-])s1
output: 8.51

* * *

molecular target: Recombinant human glycogen synthase kinase 3β (Homo sapiens, UniProt P49841); construct: purchased Upstate 14-306; test: GSK-3β inhibition (radiometric kinase assay, GS-2 peptide, 33P-ATP); type: biochemical; details: 0.5 h; compound 25 μM; remaining GSK-3 activity
Sequence (P49841 whole entry): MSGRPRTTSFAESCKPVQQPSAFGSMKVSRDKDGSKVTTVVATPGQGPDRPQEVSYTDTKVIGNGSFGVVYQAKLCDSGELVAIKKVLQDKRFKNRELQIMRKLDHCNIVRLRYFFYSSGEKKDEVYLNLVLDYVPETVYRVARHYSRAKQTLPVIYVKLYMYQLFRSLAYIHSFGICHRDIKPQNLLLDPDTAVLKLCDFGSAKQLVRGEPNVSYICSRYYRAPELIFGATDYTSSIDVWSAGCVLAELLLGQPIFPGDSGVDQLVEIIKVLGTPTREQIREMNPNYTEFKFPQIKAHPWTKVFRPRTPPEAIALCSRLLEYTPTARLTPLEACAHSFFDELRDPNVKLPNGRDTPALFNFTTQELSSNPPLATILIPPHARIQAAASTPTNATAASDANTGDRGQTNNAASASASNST
Could you please report measured remaining activity at 25 µM for the items listed next?
Reply with just the number (in %).

input: Please look up its remaining activity at 25 µM: Cc1[nH]c2ccccc2c1CC(=O)Nc1ncc([N+](=O)[O-])s1
output: 7.96

input: Would you kindly repeat that for O=C(Cc1c[nH]c2ccccc12)Nc1ncc(Cl)s1 ?
output: 29.4

input: What would you report for O=C(CCCc1c[nH]c2ccccc12)Nc1nccs1 ?
output: 59.6

input: Quick one: COc1ccc2[nH]cc(CC(=O)Nc3ncc([N+](=O)[O-])s3)c2c1
output: 43.9

input: Same question, O=C(Nc1ncc([N+](=O)[O-])s1)c1c[nH]c2ccccc12 this time
output: 73.8

input: Param item: O=C(CCc1c[nH]c2ccccc12)Nc1ncc([N+](=O)[O-])s1
output: 19.1

input: What do we get for O=C(CCCc1c[nH]c2ccccc12)Nc1ncc([N+](=O)[O-])s1 ?
output: 37.4

input: Now consider O=C(Cc1c[nH]c2ccccc12)Nc1nccs1 and answer again.
output: 70.9

input: Do the same for Cc1cnc(NC(=O)Cc2c[nH]c3ccccc23)s1 please
output: 49.1

input: What about this molecule? Cn1cc(CC(=O)Nc2ncc([N+](=O)[O-])s2)c2ccccc21
output: 17.8

input: Repeat for the following molecule: COc1ccc2[nH]c(C(=O)Nc3ncc([N+](=O)[O-])s3)cc2c1
output: 18.9

input: Now consider O=C(Nc1ncc([N+](=O)[O-])s1)c1n[nH]c2ccccc12 and answer again.
output: 34.8

input: What do you have for O=C(Cc1c[nH]c2ccccc12)Nc1ncc([N+](=O)[O-])s1 ?
output: 6.29

* * *

system: SH-SY5Y cells; experiment: Cell survival by LDH release in SH-SY5Y cells; assay type: cell-based; conditions: 50 μM, 18 hours treatment
Can you tell me % of cell viability for the items I'm about to list?
Please state the figure in %; there is no need to write the unit.

input: Query (compound): COc1ccc2[nH]cc(CC(=O)Nc3ncc([N+](=O)[O-])s3)c2c1 ; field requested: % of cell viability
output: 99.8

input: Try this compound next: COc1ccc2[nH]c(C(=O)Nc3ncc([N+](=O)[O-])s3)cc2c1
output: 84.7

input: Please answer likewise for Cn1cc(CC(=O)Nc2ncc([N+](=O)[O-])s2)c2ccccc21
output: 103

input: O=C(CCCc1c[nH]c2ccccc12)Nc1ncc([N+](=O)[O-])s1 ?
output: 103.2

input: O=C(Nc1ncc([N+](=O)[O-])s1)c1n[nH]c2ccccc12 , same question.
output: 95.3

input: Request: Cc1[nH]c2ccccc2c1CC(=O)Nc1ncc([N+](=O)[O-])s1
output: 91.6
